B1: ALDH8A1 (parent)
chain: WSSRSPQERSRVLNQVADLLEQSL

Variants of: B1
test details: protein stability index of a GFP-peptide fusion (GPS, HEK-293T) (PSI 1-6); higher = more stable;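 note: lentivirally expressed fusions sorted by FACS into six bins by GFP to DsRed ratio, PSI derived from sequencing read proportions per bin multiplied by bin number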
assay context: c terminus: a fixed tail appended
metric: protein stability index
Reply with the value as a number alone.

[
  {
    "sequence": "WSSRSPQERSRVLNQVALLLEQSL",
    "protein stability index": 1.86
  },
  {
    "sequence": "WSSRSPQERSRVLNLVADLLEQSL",
    "protein stability index": 2.36
  }
]

Data request: Let me know recorded protein stability index for `WSSRSPQERSRVLNQVADLLEVSL` , thanks.
Data returned: 1.91
